Target: MAP kinase p38 (Homo sapiens, UniProt O15264+Q15759+Q16539+P53778)
Experiment: Inhibition of p38 MAP kinase (unknown origin) by biochemical assay
Format: protein assay
MEASUREMENT LABEL: IC50 (µM)

[
  {
    "STRUCTURE": "O=C(Nc1cccc(Nc2ncc(C(=O)c3ccccc3Cl)s2)c1F)c1ccccc1",
    "IC50 [µM]": 1.98
  }
]

P: O=C(c1cnc(Nc2ccccc2)s1)c1ccccc1Cl
Q: O=C(c1cnc(Nc2ccc(F)cc2F)s1)c1ccccc1Cl
R: O=C(c1cnc(Nc2ccccc2)s1)c1ccccc1Br
S: O=C(c1cnc(Nc2cccc([N+](=O)[O-])c2)s1)c1ccccc1Cl
Input: Arrange items by their IC50 values in increasing order. Submit the labels in the order that the ranking request calls for.
Output: Q, P, R, S
